pIC50: −log10 of the molar value.
pIC50 values for SIK3 (Homo sapiens, UniProt Q9Y2K2) compiled from several publications are listed below.

- molecule: "COc1cc(-c2cnc3cc(OCCN4CC[C@H](F)C4)ccn23)cc(OC(F)F)c1C(=O)NC1CC1"
  pIC50: "8.00 to 11.00"
- molecule: "FC1(F)Oc2ccc(-c3c[nH]c4ncc(-c5cnc(N6CCOCC6)s5)cc34)cc2O1"
  pIC50: "< 6.00"
- molecule: "COCCn1cc(-c2cc(C#N)c3c(-c4cc(OC)c(C(N)=O)c(OC(F)F)c4)n(C)nc3c2)cn1"
  pIC50: 8.31
- molecule: "COc1cc(-c2cnc3cc(OCC4CCN(C(C)C)C4)ccn23)cc(OC(F)F)c1C(=O)NC1CC1 (stereo not drawn)"
  pIC50: "8.00 to 11.00"
- molecule: "COc1cc(-c2c3c(C(F)F)cc(-c4cnn(CC[C@@H](C)O)c4)cc3nn2C)cc(OC(F)F)c1C(=O)N[C@@H]1CC1(F)F"
  pIC50: 9.15
- molecule: "FC1(F)Oc2cccc(-c3c[nH]c4ncc(-c5ccc(CN6CCCCC6)s5)cc34)c2O1"
  pIC50: "> 7.00"
- molecule: "Cc1ccc(-c2ccnc3[nH]cc(-c4cccc(F)c4Cl)c23)o1"
  pIC50: "< 6.00"
- molecule: "COc1cc(-c2cnc3cc(OCCCOS(C)(=O)=O)ccn23)cc(OC(F)F)c1C(=O)NC1CC1"
  pIC50: "8.00 to 11.00"
- molecule: "O=C(c1c(F)cccc1F)c1c[nH]c2ncc(-c3cnn(C4CCNCC4)c3)cc12"
  pIC50: "> 7.00"
- molecule: "Oc1ccccc1-c1c[nH]c2ncc(-c3ccsc3)cc12"
  pIC50: "< 7.00"
- molecule: "COc1cc(-c2cnc3cc(OC[C@H]4CN(C)CCO4)ccn23)cc2c1C(=O)N(CC(F)(F)F)CC2"
  pIC50: "8.00 to 11.00"
- molecule: "COc1cc(-c2cnc3cc(OC[C@@H]4CCCNC4)ccn23)cc(OC(F)F)c1C(=O)NC1CC1"
  pIC50: "8.00 to 11.00"
- molecule: "COc1cc(-c2cnn(C[C@H](C)O)c2)cc2nn(C)c(-c3cc(OC(F)F)c4c(c3)[C@@H](C)CNC4=O)c12 (single isomer, unassigned)"
  pIC50: 8.14
- molecule: "CCn1cc(-c2cc(C(F)F)c3c(-c4cc(OC)c(C(=O)N[C@@H]5CC5(F)F)c(OC(F)F)c4)n(C)nc3c2)cn1"
  pIC50: 8.96
- molecule: "COc1cc(-c2c3c(OCc4cnc(C)s4)cc(-c4cnn(C)c4)cc3nn2C)cc(OC(F)F)c1C(=O)N1CC(O)(C(F)(F)F)C1"
  pIC50: 8.01

====

pIC50 values for UniProt Q9Y2K2 compiled from several publications are listed below.
pIC50: −log10 of the molar value.

- compound: "COc1cc(-c2cnc3cc(OCC4(F)CNC4)ccn23)cc(OC(F)F)c1C(=O)NC1CC1"
  pIC50: "8.00 to 11.00"
- compound: "COc1cc(-c2cnc3cc(OCC(O)CN4CCS(=O)(=O)CC4)ccn23)cc(OC(F)F)c1C(=O)NC1CC1 (stereo not drawn)"
  pIC50: "8.00 to 11.00"
- compound: "COc1cc(-c2cnc3cc(OCC4CCCCN4C(C)C)ccn23)cc(OC(F)F)c1C(=O)NC1CC1 (stereo not drawn)"
  pIC50: "8.00 to 11.00"
- compound: "Oc1ccccc1-c1c[nH]c2ncc(-c3ccc(CN4CCOCC4)s3)cc12"
  pIC50: "< 7.00"
- compound: "COc1cc(-c2cnc3cc(OCC4COCCN4C(C)C)ccn23)cc(OC(F)F)c1C(=O)NC1CC1 (stereo not drawn)"
  pIC50: "8.00 to 11.00"
- compound: "CCCn1cc(-c2cc(C(F)F)c3c(-c4cc(OC)c(C(N)=O)c(OC(F)F)c4)n(C)nc3c2)cn1"
  pIC50: 8.57
- compound: "COc1cc(-c2cnc3cc(OCC4CCCCN4)ccn23)cc(OC(F)F)c1C(=O)NC1CC1 (stereo not drawn)"
  pIC50: "8.00 to 11.00"
- compound: "COc1cc(-c2cnc3cc(OCC4CCCCC4)ccn23)cc(OC(F)F)c1C(=O)NC1CC1"
  pIC50: "8.00 to 11.00"
- compound: "COc1cc(-c2cnc3cc(OCCOCCN4CCCCC4)ccn23)cc(OC(F)F)c1C(=O)NC1CC1"
  pIC50: "8.00 to 11.00"
- compound: "COc1cc(-c2cnc3cc(OCc4nccs4)ccn23)cc(OC(F)F)c1C(=O)NC1CC1"
  pIC50: "8.00 to 11.00"
- compound: "COc1cc(-c2cnc3cc(OCCN4CCC(F)(F)C4)ccn23)cc(OC(F)F)c1C(=O)NC1CC1"
  pIC50: "8.00 to 11.00"
- compound: "COc1cc(-c2c3c(C#N)cc(-c4cnn(C)c4)cc3nn2C)cc(OC(F)F)c1C(N)=O"
  pIC50: 8.19
- compound: "O=C1c2c(cc(-c3cnc4cc(OCCN5CCOCC5)ccn34)cc2OC(F)F)CCN1C1CC1"
  pIC50: "8.00 to 11.00"
- compound: "COc1cc(-c2cnn3cc(OC(C)(C)CN4CCOCC4)ccc23)cc(OC(F)F)c1C(=O)N[C@@H]1C[C@@H]1F"
  pIC50: "7.00 to 8.00"
- compound: "CC[C@H](O)Cn1cc(-c2cc(C#N)c3c(-c4cc(OC)c(C(=O)NCC5(F)CC5)c(OC(F)F)c4)n(C)nc3c2)cn1"
  pIC50: 8.23

====

IC50 values for SIK3 (Homo sapiens, UniProt Q9Y2K2) compiled from several publications are listed below.

- molecule: "COc1cc(-c2cnc3cc(OCC4CN(C)C4)ccn23)cc(OC(F)F)c1C(=O)NC1CC1"
  IC50: "0.01 to 10 nM"
- molecule: "COc1cc(-c2cnc3cc(OCCCN4CCCC5(COC5)C4)ccn23)cc(OC(F)F)c1C(=O)NC1CC1"
  IC50: "0.01 to 10 nM"
- molecule: "COc1cc(-c2cnc3cc(OCC4(O)CCN(C(C)C)C4)ccn23)cc(OC(F)F)c1C(=O)NC1CC1 (stereo not shown)"
  IC50: "0.01 to 10 nM"
- molecule: "FC1(F)Oc2ccc(-c3c[nH]c4ncc(-c5cnn(C6CCNCC6)c5)cc34)cc2O1"
  IC50: "< 100 nM"
- molecule: "COc1cc(-c2c3c(C#N)cc(-c4cnn(C)c4)cc3nn2C)cc(OC(F)F)c1C(=O)NC[C@@H]1CC1(F)F (single isomer, unassigned)"
  IC50: "7.2 nM"
- molecule: "COc1cc(-c2cnc3cc(OC[C@@H]4CCCN(CCO)C4)ccn23)cc(OC(F)F)c1C(=O)NC1CC1"
  IC50: "0.01 to 10 nM"
- molecule: "FC1(F)Oc2ccc(-c3c[nH]c4ncc(-c5ccc(CN6CCCC6)s5)cc34)cc2O1"
  IC50: "> 1000 nM"

====

IC50 values for SIK3 (Homo sapiens, UniProt Q9Y2K2) compiled from several publications are listed below.
quantity: IC50

- compound: "COc1cc(-c2cnc3cc(OCCCN4CCOCC45CCC5)ccn23)cc(OC(F)F)c1C(=O)NC1CC1"
  quantity: "IC50"
  value.reported: "0.01 to 10 nM"
- compound: "Oc1c(F)cc(F)cc1-c1c[nH]c2ncc(-c3ccsc3)cc12"
  quantity: "IC50"
  value.reported: "> 100 nM"
- compound: "COc1c(F)cc(F)cc1-c1c[nH]c2ncc(-c3cnc(N4CCOCC4)s3)cc12"
  quantity: "IC50"
  value.reported: "> 100 nM"
- compound: "COc1cc(-c2cnc3cc(OC[C@@H]4CC(F)(F)CN4C)ccn23)cc(OC(F)F)c1C(=O)NC1CC1"
  quantity: "IC50"
  value.reported: "0.01 to 10 nM"
- compound: "COc1cc(-c2c3c(C#N)cc(-c4cnn(CC(C)(C)O)c4)cc3nn2C)cc(OC(F)F)c1C(=O)NCC1(F)CC1"
  quantity: "IC50"
  value.reported: "11.8 nM"
- compound: "COc1cc(-c2c3c(OCC(F)(F)F)cc(-c4cnn(C)c4)cc3nn2C)cc(OC(F)F)c1C(=O)N1CC(O)(C(F)(F)F)C1"
  quantity: "IC50"
  value.reported: "3.6 nM"
- compound: "COc1cc(-c2cnc3cc(OCCN(C)CC#N)ccn23)cc(OC(F)F)c1C(=O)NC1CC1"
  quantity: "IC50"
  value.reported: "0.01 to 10 nM"
- compound: "COc1cc(-c2cnc3cc(OCCN4CCCC(C#N)C4)ccn23)cc(OC(F)F)c1C(=O)NC1CC1 (stereo not shown)"
  quantity: "IC50"
  value.reported: "0.01 to 10 nM"
- compound: "COc1cc(-c2cnc3cc(OCC(O)CN4CCOCC4)ccn23)cc(OC(F)F)c1C(=O)NC1CC1 (stereo not shown)"
  quantity: "IC50"
  value.reported: "0.01 to 10 nM"
- compound: "CCOCCOc1ccn2c(-c3cc(OC)c(C(=O)NC4CC4)c(OC(F)F)c3)cnc2c1"
  quantity: "IC50"
  value.reported: "0.01 to 10 nM"
- compound: "COc1cc(-c2cnc3cc(OCCN4CCOCC4)cnn23)cc2c1C(=O)N(CC(F)(F)F)CC2"
  quantity: "IC50"
  value.reported: "10 to 100 nM"
- compound: "COc1cc(-c2c3c(C#N)cc(-c4cnn(C)c4)cc3nn2C)cc(OC(F)F)c1C(=O)N1CC(C#N)(C(F)F)C1"
  quantity: "IC50"
  value.reported: "9.4 nM"
- compound: "CC1CNC(=O)c2c(OC(F)F)cc(-c3c4c(C#N)cc(-c5cnn(C)c5)cc4nn3C)cc21 (stereo not shown)"
  quantity: "IC50"
  value.reported: "3 nM"
